B1: library; a variant is named by its letters at N, in order (parent)
chain: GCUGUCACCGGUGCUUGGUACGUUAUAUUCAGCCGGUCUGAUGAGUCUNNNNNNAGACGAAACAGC

Variants of: B1
Assay: FACS-Seq fitted mean relative fluorescence mCherry/BFP with ligand (log10 relative fluorescence); HEK293T overexpressing SLC46A1; ligand concentration (+) FACS-Seq: 6 mM; higher = higher reporter protein expression
Conditions: with (6R,S)-folinic acid; ligand present: yes
Endpoint Label: FACS-Seq fitted mean (log10)

For the variant shown here, "AAAUCG" , give the reported FACS-Seq fitted mean (log10). 0.42

Quick one: FACS-Seq fitted mean (log10) of "AUUUUG" ? 0.552

// FACS-Seq fitted mean (log10) lookup, key: "CGUGAC" 0.201

Record request: FACS-Seq fitted mean (log10) value, item "CUCUUA" 0.143

Would you mind telling me what FACS-Seq fitted mean (log10) value was observed for "CAGCCU" ? -0.235

// FACS-Seq fitted mean (log10) lookup, key: "GACGCC" 0.0736

What value of FACS-Seq fitted mean (log10) has been recorded for this entry: "AGUUCA" -0.01
